Ref: patent US6908884B2

For each record, write down the corresponding melting point.

Form: compound = CCCCn1c(=O)oc2ccc(C(=O)C3=C(O)CC(C)(C)CC3=O)c(C)c21 [Example 10] ; melting point = 115 to 116 °C

Lab note: CC#CCn1c(=O)sc2ccc(C(=O)C3=C(O)CC(C)(C)CC3=O)c(C)c21 [Example 33] gave melting point of 147 to 149 °C

melting point in this record for CCCn1c(=O)sc2ccc(C(=O)C3=C(O)CC(C)(C)CC3=O)c(C)c21 [Example 25] : 129 to 135 °C

Looking up C=CCCn1c(=O)sc2ccc(C(=O)C3=C(O)C4CCC(C4)C3=O)c(C)c21 (centres unmarked) [Example 40] , I see its melting point listed as 129 to 132 °C

So for C=CCn1c(=O)sc2ccc(C(=O)C3=C(O)CC(C)(C)CC3=O)c(C)c21 [Example 5] , the logged melting point turned out to be 143 to 150 °C

# melting point of Cc1c(C(=O)C2=C(O)CC(C)(C)CC2=O)ccc2oc(=O)n(C)c12 [Example 7] = 139 to 143 °C

Documented melting point of CCn1c(=O)sc2ccc(C(=O)C3=C(n4cccn4)CC(C)(C)CC3=O)c(C)c21 [Example 21] : 150 to 151 °C

Briefly, melting point measured for Cc1c(C(=O)C2=C(O)CC(C)(C)CC2=O)ccc2sc(=O)n(Cc3ccccc3)c12 [Example 32] : 161 to 166 °C

---

Kindly state melting point for each of the entries shown.

Quick note, melting point for Cc1c(C(=O)C2=C(O)C3CCC(C3)C2=O)ccc2sc(=O)n(C)c12 (stereo not drawn) landed at 101 to 110 °C

Value of measured melting point for the entry `Cc1c(C(=O)C2=C(O)CCCC2=O)ccc2oc(=O)n(C)c12` : 207 to 209 °C

melting point recorded for this molecule, `CCCn1c(=O)oc2ccc(C(=O)C3=C(O)CC(C)(C)CC3=O)c(C)c21` , is 189 to 193 °C
